Cited source: PubChem BioAssay (Tox21)

experiment: qHTS assay to test for compound auto fluorescence at 535 nm (green) in HepG2 cell free culture (AID 720686); details: Cell-free medium, green autofluorescence 485/535 nm; series mostly up to 91.3 µM; further: on the % scale 0 is the no-effect control and ±100 the full control effect
Activity calls are given as the source filed them. The call rests on the fitted dose curve; in most records, active means well fitted curve in the direction sought with a large enough effect in the repeat runs; inconclusive means weak or mixed curves; inactive means flat fitted curve, though single readings scatter.

# chemical_structure, outcome
measured = [
    ("Cc1[nH]c(=O)n(C(C)(C)C)c(=O)c1Cl", "inactive"),
    ("Nc1ccc(Oc2ccc(N)cc2)cc1", "inactive"),
    ("Clc1cccc(Cl)c1Cl", "inactive"),
]

----------
target: Progesterone receptor (Homo sapiens) (UniProt P06401); assay: qHTS assay to identify small molecule antagonists of the progesterone receptor (PR) signaling pathway (AID 1346795); conditions: PR-UAS-bla HEK293T, beta-lactamase FRET ratio, 16 h; series mostly up to 92.4 µM
Sequence (P06401 whole entry, looked up): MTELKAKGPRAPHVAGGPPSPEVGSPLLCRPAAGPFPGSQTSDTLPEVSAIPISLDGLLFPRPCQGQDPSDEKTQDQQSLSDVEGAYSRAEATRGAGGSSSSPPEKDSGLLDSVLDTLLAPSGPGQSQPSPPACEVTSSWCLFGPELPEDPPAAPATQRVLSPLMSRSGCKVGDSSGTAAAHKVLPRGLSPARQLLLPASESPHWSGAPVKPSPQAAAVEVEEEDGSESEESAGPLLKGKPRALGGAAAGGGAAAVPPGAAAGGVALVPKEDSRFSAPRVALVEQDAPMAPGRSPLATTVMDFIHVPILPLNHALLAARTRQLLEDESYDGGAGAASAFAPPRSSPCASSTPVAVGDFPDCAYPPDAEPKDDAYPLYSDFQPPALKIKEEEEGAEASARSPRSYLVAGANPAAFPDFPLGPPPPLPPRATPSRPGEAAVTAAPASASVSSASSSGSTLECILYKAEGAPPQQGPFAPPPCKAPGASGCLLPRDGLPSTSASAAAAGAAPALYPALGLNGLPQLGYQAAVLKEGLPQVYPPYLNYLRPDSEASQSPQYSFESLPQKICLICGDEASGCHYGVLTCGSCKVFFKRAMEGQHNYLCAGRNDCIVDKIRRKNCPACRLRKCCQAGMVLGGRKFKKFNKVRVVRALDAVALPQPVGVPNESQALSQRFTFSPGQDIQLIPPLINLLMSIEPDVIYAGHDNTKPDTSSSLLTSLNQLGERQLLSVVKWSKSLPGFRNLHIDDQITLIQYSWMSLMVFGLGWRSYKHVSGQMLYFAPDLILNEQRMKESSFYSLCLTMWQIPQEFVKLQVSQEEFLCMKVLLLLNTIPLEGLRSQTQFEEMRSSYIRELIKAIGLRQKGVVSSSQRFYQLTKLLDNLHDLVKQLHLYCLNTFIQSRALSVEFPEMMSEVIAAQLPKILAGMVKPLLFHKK
Results filed as inconclusive are left out. The source made the active and inactive calls. The call rests on the fitted dose curve; in most records, active means well fitted inhibition curve with a large enough effect in the signal ratio in the repeat runs (not every such curve was filed as active); inconclusive means weak or mixed curves; inactive means flat fitted curve, though single readings scatter; the % refers to the signal ratio.
Just give me one of these, please: 1.0 = active, 0.0 = inactive

Observe how each entry below is paired with its result.
# molecule, target_or_test_system, label_value
records = [
    ("CC(Oc1ccc(Cl)cc1Cl)C(=O)O (stereo not drawn)", "Progesterone receptor (Homo sapiens) (UniProt P06401)", 0.0),
    ("Nc1ccc(Br)cc1", "Progesterone receptor (Homo sapiens) (UniProt P06401)", 1.0),
    ("C=C(C)CCl", "Progesterone receptor (Homo sapiens) (UniProt P06401)", 0.0),
    ("CCCN(CCC)c1c([N+](=O)[O-])cc(C(F)(F)F)cc1[N+](=O)[O-]", "Progesterone receptor (Homo sapiens) (UniProt P06401)", 0.0),
]

Exercise: Identify the outcome logged in this assay for the molecule shown: "O=c1ccc(=O)[nH][nH]1"
Key: 0.0

----------
Assay: qHTS assay to identify small molecule agonists of the retinoic acid receptor (RAR) signaling pathway (AID 1159553); further: potency means the concentration at half of the fitted maximal effect; on activation: on the % scale 0 is the no-effect control and ±100 the full control effect
Conditions: C3RL4 RARE luciferase reporter, agonist, 6 h
Source text: National Center for Advancing Translational Sciences [NCATS] NIH Chemical Genomics Center [NCGC] U.S. Environmental Protection Agency [EPA] National Institutes of Environmental Health Sciences [NIEHS] National Toxicology Program [NTP] […]
Inconclusive results are not listed. Active and inactive are the calls of the source. Calls come from the whole dose curve; as a rule, active = well fitted activation curve with a large enough effect in the repeat runs; inconclusive = weak or mixed curves, or effect the other way; inactive = no such curve, though single readings can be large or run the other way.

# compound, Potency
records = [
    ("CCCC1COC(Cn2cncn2)(c2ccc(Cl)cc2Cl)O1 (stereo not drawn)", "inactive"),
    ("CC(C)OC(=O)Nc1ccccc1", "30.7 µM (active)"),
    ("Cc1[nH]c(=O)n(C(C)(C)C)c(=O)c1Cl", "inactive"),
]

----------
Experiment: qHTS RealTime-Glo MT Cell Viability Assay in HEK293 cells - 24 hour (AID 1224886); further: top concentration of the series differs between compounds; on the % scale 0 is the no-effect control and ±100 the full control effect; nearly all actives have a fitted effect of over 50% in size
Conditions: RealTime-Glo luminescence; series mostly up to 76.8 µM
From the text: National Center for Advancing Translational Sciences [NCATS] NIH Chemical Genomics Center [NCGC] U.S. Environmental Protection Agency [EPA] National Institutes of Environmental Health Sciences [NIEHS] National Toxicology Program [NTP] U.S. Food and Drug Administration [FDA] Measure of cell viability is critical in the cell-base assay. Analysis of cell viability is necessary for the characterization of cell responses to cytotoxic drugs and environmental stress. […]
Results filed as inconclusive are left out. Calls of active or inactive are those of the source. Calls come from the whole dose curve; as a rule, active = well fitted cell-killing curve with a large enough effect in the repeat runs; inconclusive = weak or mixed curves, or effect the other way; inactive = flat fitted curve, though single readings scatter.
property_name: outcome

// worked examples, outcome included
# compound, property_name, assay_value
rows = [
    ("O=c1n(Cl)c(=O)n(Cl)c(=O)n1Cl", "outcome", "inactive"),
    ("CC(=O)C=C(C)C", "outcome", "inactive"),
    ("C1CC2OC2CC1C1CO1 (stereo not drawn)", "outcome", "inactive"),
    ("CCOP(OCC)OCC", "outcome", "inactive"),
    ("Cc1ccc(N)cc1Cl", "outcome", "inactive"),
    ("O=NN1CCCC1", "outcome", "inactive"),
    ("CC(C)(C)OOC(=O)c1ccccc1", "outcome", "inactive"),
    ("CCCN(CCC)c1c([N+](=O)[O-])cc(C(F)(F)F)cc1[N+](=O)[O-]", "outcome", "inactive"),
]

Exercise: Return reported outcome; argument: "CN(N=O)c1ccccc1"
Key: inactive

Exercise: outcome for "CC(C)NC(=O)N1CC(=O)N(c2cc(Cl)cc(Cl)c2)C1=O" ?
Key: inactive

Exercise: Which outcome is listed for "COC(=O)NS(=O)(=O)c1ccc(N)cc1" ?
Key: inactive

Exercise: Reported outcome, compound "C=CCO" : ____
Key: inactive

Exercise: Could you tell me which outcome is on file for "CCC[N+](=O)[O-]" ?
Key: inactive

Exercise: So what's the measured outcome for this one? "Oc1ccccc1Cl"
Key: inactive

Exercise: What value of outcome has been reported for the following compound? "CC(C)OC(=O)Nc1cccc(Cl)c1"
Key: inactive
